Data credit: BindingDB's records for doi:10.1021/bi401354d

# system under test: Myeloperoxidase (Homo sapiens, UniProt P05164)
# Sequence (P05164 whole entry): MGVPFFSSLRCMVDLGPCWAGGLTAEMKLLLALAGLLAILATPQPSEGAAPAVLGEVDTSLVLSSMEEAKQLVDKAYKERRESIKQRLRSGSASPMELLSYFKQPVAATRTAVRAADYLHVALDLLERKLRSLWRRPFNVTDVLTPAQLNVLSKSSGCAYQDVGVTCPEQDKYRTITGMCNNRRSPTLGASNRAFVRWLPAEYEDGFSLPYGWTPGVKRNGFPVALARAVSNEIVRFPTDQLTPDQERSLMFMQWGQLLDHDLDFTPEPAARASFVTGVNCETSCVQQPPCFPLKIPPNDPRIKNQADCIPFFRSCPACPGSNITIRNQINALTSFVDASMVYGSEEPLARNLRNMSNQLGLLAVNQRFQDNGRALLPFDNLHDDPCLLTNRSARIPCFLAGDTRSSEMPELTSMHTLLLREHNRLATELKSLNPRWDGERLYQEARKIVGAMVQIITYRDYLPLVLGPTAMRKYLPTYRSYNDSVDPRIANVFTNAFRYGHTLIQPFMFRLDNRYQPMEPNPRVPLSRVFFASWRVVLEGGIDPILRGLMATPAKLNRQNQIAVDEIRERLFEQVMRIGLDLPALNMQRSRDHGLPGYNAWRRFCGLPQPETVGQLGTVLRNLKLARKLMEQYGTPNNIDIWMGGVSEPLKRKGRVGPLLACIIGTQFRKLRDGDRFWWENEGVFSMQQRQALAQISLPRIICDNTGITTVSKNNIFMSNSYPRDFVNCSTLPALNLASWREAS
# assay details: MPO Activity Assay
# condition description: pH 7.4
measured quantity: pKi
Expect pKi as a plain number equal to -log10 of the molar concentration.

CCO[C@H](C)Cn1c(=S)[nH]c(=O)c2[nH]cnc21: 6.26

// below: pKi requested for another compound
Return pKi measured with Myeloperoxidase (Homo sapiens, UniProt P05164) given this compound: CCOC(C)Cn1c(=S)[nH]c(=O)c2[nH]cnc21 (configuration not stated)
6.38
